ASSAY_SYSTEM: Bromodomain-containing protein 4 (Homo sapiens, UniProt O60885)
ASSAY_DETAILS: Inhibition of BRD4-BD2 (unknown origin) by fluorescence polarization assay
pIC50: −log10 of the molar value.

# MOLECULE, ASSAY_SYSTEM, pIC50
rows = [
    ("CC(=O)OC[C@]12CC[C@H]3[C@@H](C[C@H]4O[C@]45CC=CC(=O)[C@]35C)[C@]1(O)CC[C@@]2(O)[C@@](C)(O)[C@H]1C[C@H](C)[C@H](C)C(=O)O1", "Bromodomain-containing protein 4 (Homo sapiens, UniProt O60885)", "< 4.70"),
    ("CC(=O)OC[C@]12CC[C@H]3[C@@H](C[C@H]4O[C@]45CC=CC(=O)[C@]35C)[C@]1(O)CC[C@@]2(O)[C@@](C)(O)[C@H]1C[C@@H](C)[C@@H](C)C(=O)O1", "Bromodomain-containing protein 4 (Homo sapiens, UniProt O60885)", "< 4.70"),
    ("CC1=C(CO)C(=O)O[C@@H]([C@@H](C)[C@H]2CC[C@H]3[C@@H]4C[C@H]5O[C@]56[C@@H](O)C=CC(=O)[C@]6(C)[C@H]4CC[C@]23C)C1 [WITHAFERIN A]", "Bromodomain-containing protein 4 (Homo sapiens, UniProt O60885)", "< 4.70"),
    ("CC1=C(CO)C[C@H]([C@](C)(O)[C@]2(O)CC[C@@]3(O)[C@@H]4C[C@H]5O[C@]56CC=CC(=O)[C@]6(C)[C@H]4CC[C@]23C)OC1=O", "Bromodomain-containing protein 4 (Homo sapiens, UniProt O60885)", "< 4.70"),
]

* * *

This listing pairs compounds with measured pEC50.
System: DU-145
ASSAY_DETAILS: Antiproliferative activity against AR-negative human DU-145 cells assessed as reduction in cell viability measured after 72 hrs by MTS assay
CONDITION_NOTES: DU-145, 72 h
pEC50: −log10 of the molar value.

# STRUCTURE, pEC50
data = [
    ("CC(=O)OC[C@]12CC[C@H]3[C@@H](C[C@H]4O[C@]45CC=CC(=O)[C@]35C)[C@]1(O)CC[C@@]2(O)[C@@](C)(O)[C@H]1C[C@@H](C)[C@@H](C)C(=O)O1", "< 5.70"),
    ("CC1=C(CO)C[C@H]([C@](C)(O)[C@]2(O)CC[C@@]3(O)[C@@H]4C[C@H]5O[C@]56CC=CC(=O)[C@]6(C)[C@H]4CC[C@]23C)OC1=O", "< 5.30"),
    ("Cc1sc2c(c1C)C(c1ccc(Cl)cc1)=N[C@@H](CC(=O)OC(C)(C)C)c1nnc(C)n1-2", "< 5.70"),
]

* * *

ASSAY_SYSTEM: Bromodomain-containing protein 4 (Homo sapiens, UniProt O60885)
ASSAY_DETAILS: Inhibition of BRD4-BD1 (unknown origin) by fluorescence polarization assay
pIC50: −log10 of the molar value.
MEASURE: pIC50

# COMPOUND, RESULT_VALUE
records = [
    ("CC(=O)OC[C@]12CC[C@H]3[C@@H](C[C@H]4O[C@]45CC=CC(=O)[C@]35C)[C@]1(O)CC[C@@]2(O)[C@@](C)(O)[C@H]1C[C@@H](C)[C@@H](C)C(=O)O1", "< 4.70"),
    ("CC1=C(CO)C(=O)O[C@@H]([C@@H](C)[C@H]2CC[C@H]3[C@@H]4C[C@H]5O[C@]56[C@@H](O)C=CC(=O)[C@]6(C)[C@H]4CC[C@]23C)C1 [WITHAFERIN A]", "< 4.70"),
    ("CC(=O)OC[C@]12CC[C@H]3[C@@H](C[C@H]4O[C@]45CC=CC(=O)[C@]35C)[C@]1(O)CC[C@@]2(O)[C@@](C)(O)[C@H]1C[C@H](C)[C@H](C)C(=O)O1", "< 4.70"),
]
